Just for reference, ChEMBL document CHEMBL3758162 is where these values come from.

Could you please report measured pIC50 for the items listed next?
System: K562
Assay: Antiproliferative activity against human K562 cells assessed as cell viability after 72 hrs by CellTitre-Glo luminescent assay
Assay type: functional, cell-based
Conditions: Homo sapiens, K562, 72 h
Numbers only, as −log10 of the molar value.

Worked cases, answers included:
molecule: CCOC(=O)N1CC2(CC(=O)c3cc(/C=C/C(=O)NO)ccc3O2)C1
pIC50: 5.73
--
molecule: O=C(/C=C/c1ccc2c(c1)C(=O)CC1(CCN(C(=O)c3ccccc3)C1)O2)NO (racemic)
pIC50: 6.27
--
molecule: O=C(/C=C/c1ccc2c(c1)C(=O)CC1(CCN(Cc3ccc(F)cc3)C1)O2)NO (stereo not given)
pIC50: 6.55
--
molecule: O=C(/C=C/c1ccc2c(c1)C(=O)CC1(CCCN(C(=O)c3ccccc3)CC1)O2)NO (racemic)
pIC50: 5.95

Turning now to a further record.
Inquiry: Bench note: what pIC50 did O=C(/C=C/c1ccc2c(c1)C(=O)CC1(CN(Cc3ccc(F)cc3)C1)O2)NO show?
Reply text: 6.52

----------
Experiment: Metabolic stability in human liver microsomes assessed as compound remaining at 1 uM preincubated for 10 mins measured after 30 mins by LC-MS/MS analysis
Assay type: ADME
Settings: liver microsomes, read-out: Stability
Could you please report measured remaining at 0.5 h, 1 µM for the items listed next?
One number for each entry, in %.

Worked cases, answers included:
compound: Cn1cc(CN2CCCC3(CC(=O)c4cc(/C=C/C(=O)NO)ccc4O3)C2)c2ccccc21 (racemic)
displayUnit: %
recordedResult: 19

compound: O=C(/C=C/c1ccc2c(c1)C(=O)CC1(CCCN(Cc3ccccc3)CC1)O2)NO (racemic)
displayUnit: %
recordedResult: 19

compound: O=C(/C=C/c1ccc2c(c1)C(=O)CC1(CCN(CCc3ccccc3)CC1)O2)NO
displayUnit: %
recordedResult: 66

Each compound below has a recorded value; state its remaining at 0.5 h, 1 µM.
1. O=C(/C=C/c1ccc2c(c1)C(=O)CC1(CCCN(Cc3ccc(F)cc3)CC1)O2)NO (racemic)
2. O=C(/C=C/c1ccc2c(c1)C(=O)CC1(CN(Cc3ccccc3)C1)O2)NO
3. CN1CCCC2(CC1)CC(=O)c1cc(/C=C/C(=O)NO)ccc1O2 (racemic)

Reply text:
11
44
79

----------
Target: Histone deacetylase
Assay: Inhibition of HDAC in human HeLa cells nuclear extract using Fluor de lys as substrate after 15 mins by fluorometric analysis
Format: cell-based
observationType: IC50 (nM)
Answers are plain numbers, in nM.

compound: O=C(/C=C/c1ccc2c(c1)C(=O)CC1(CCCN(CCc3ccccc3)C1)O2)NO (racemic)
IC50, nM: 1

Each compound below has a recorded value; state its IC50.
1. Cn1cc(CN2CC3(CC(=O)c4cc(/C=C/C(=O)NO)ccc4O3)C2)c2ccccc21
2. O=C(/C=C/c1ccc2c(c1)C(=O)CC1(CN(C(=O)c3ccccc3)C1)O2)NO
3. O=C(/C=C/c1ccc2c(c1)C(=O)CC1(CCN(Cc3ccccc3)C1)O2)NO (single isomer, unassigned; (-))

Reply text:
62
81
26

Each compound below has a recorded value; state its IC50.
1. Cn1cc(CN2CCCC3(CC(=O)c4cc(/C=C/C(=O)NO)ccc4O3)C2)c2ccccc21 (racemic)
2. Cn1cc(CN2CCC3(CC(=O)c4cc(/C=C/C(=O)NO)ccc4O3)C2)c2ccccc21 (racemic)

Reply text:
1. 183
2. 85

Each compound below has a recorded value; state its IC50.
1. O=C(/C=C/c1ccc2c(c1)C(=O)CC1(CN(Cc3ccccc3)C1)O2)NO
2. CN1CCCC2(CC1)CC(=O)c1cc(/C=C/C(=O)NO)ccc1O2 (racemic)
3. Cn1cc(CN2CCCC3(CC2)CC(=O)c2cc(/C=C/C(=O)NO)ccc2O3)c2ccccc21 (racemic)

Reply text:
[67, 114, 114]

----------
Target: Histone deacetylase 3 (Homo sapiens)
Sequence (O15379 whole entry): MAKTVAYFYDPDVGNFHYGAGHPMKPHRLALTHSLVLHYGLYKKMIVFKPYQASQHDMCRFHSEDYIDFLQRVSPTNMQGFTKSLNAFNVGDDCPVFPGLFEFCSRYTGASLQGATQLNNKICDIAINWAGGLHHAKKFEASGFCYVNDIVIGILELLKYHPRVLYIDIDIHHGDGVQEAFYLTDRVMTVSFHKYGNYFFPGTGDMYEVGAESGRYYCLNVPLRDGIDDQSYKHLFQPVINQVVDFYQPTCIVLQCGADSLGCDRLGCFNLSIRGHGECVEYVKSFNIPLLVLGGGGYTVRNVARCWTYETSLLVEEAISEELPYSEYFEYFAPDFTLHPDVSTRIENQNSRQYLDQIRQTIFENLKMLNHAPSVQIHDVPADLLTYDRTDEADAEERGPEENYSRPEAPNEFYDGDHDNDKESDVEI
Assay: Inhibition of recombinant human HDAC3 after 15 mins by fluorescence assay
observationType: IC50 (nM)
One number for each entry, in nM.

Inquiry: Could you share what IC50 was measured for O=C(/C=C/c1ccc2c(c1)C(=O)CC1(CCN(Cc3ccc(F)cc3)CC1)O2)NO , tested on Histone deacetylase 3 (Homo sapiens)?
Reply text: 92

----------
Could you please report measured pIC50 for the items listed next?
Biological target: Histone deacetylase 2 (Homo sapiens, UniProt Q92769)
Sequence (Q92769 whole entry): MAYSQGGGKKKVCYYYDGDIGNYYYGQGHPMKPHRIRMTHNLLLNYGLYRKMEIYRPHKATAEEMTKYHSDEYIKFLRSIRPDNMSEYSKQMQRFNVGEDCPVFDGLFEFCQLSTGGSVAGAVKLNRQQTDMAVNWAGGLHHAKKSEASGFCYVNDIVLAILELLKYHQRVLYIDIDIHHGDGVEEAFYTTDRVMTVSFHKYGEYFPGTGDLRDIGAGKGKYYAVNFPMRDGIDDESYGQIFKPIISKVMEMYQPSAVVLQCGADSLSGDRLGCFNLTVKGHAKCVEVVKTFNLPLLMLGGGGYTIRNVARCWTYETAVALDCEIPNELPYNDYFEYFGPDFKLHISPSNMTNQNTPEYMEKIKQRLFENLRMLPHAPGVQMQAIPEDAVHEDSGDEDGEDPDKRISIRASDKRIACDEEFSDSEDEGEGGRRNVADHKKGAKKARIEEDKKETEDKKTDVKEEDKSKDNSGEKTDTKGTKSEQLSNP
Assay: Inhibition of HDAC2 (unknown origin)
Answers are plain numbers, as −log10 of the molar value.

compound: O=C(/C=C/c1ccc2c(c1)C(=O)CC1(CCCN(Cc3ccccc3)CC1)O2)NO (racemic)
assayedTarget: Histone deacetylase 2 (Homo sapiens, UniProt Q92769)
pIC50: 7.14

Turning now to a further record.
Inquiry: Bench note: what pIC50 did O=C(/C=C/c1ccc2c(c1)C(=O)CC1(CCN(Cc3ccccc3)C1)O2)NO (racemic) show?
Reply text: 7.09

----------
Could you please report measured inhibition at 0.5 h, 10 µM for the items listed next?
Biological target: CYP2D6 (Homo sapiens)
Sequence (P10635 whole entry): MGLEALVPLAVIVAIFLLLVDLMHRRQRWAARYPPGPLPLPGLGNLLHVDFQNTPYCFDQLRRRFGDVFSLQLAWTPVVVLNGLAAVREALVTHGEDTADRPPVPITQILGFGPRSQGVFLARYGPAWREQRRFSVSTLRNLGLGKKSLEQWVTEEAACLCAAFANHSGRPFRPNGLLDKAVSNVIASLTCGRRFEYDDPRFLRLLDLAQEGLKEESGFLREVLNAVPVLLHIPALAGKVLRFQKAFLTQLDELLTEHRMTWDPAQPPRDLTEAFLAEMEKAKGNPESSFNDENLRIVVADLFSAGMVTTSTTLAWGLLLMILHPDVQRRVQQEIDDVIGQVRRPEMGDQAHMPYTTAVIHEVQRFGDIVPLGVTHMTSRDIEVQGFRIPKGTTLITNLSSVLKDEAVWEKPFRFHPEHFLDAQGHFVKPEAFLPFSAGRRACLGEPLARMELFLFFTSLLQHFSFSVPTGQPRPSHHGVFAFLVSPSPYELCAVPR
Experiment: Inhibition of human CYP2D6 using 3-[2-(N,N-diethyl-N-methylamino)ethyl]-7-methoxy-4-methylcoumarin as substrate at 10 uM after 30 mins by fluorimetric analysis
Assay type: ADME
Numbers only, in %.

compound: CN1CCCC2(CC1)CC(=O)c1cc(/C=C/C(=O)NO)ccc1O2 (racemic)
recordedResult: 5
//
compound: O=C(/C=C/c1ccc2c(c1)C(=O)CC1(CCCN(CCc3ccccc3)CC1)O2)NO (racemic)
recordedResult: 52

Each compound below has a recorded value; state its inhibition at 0.5 h, 10 µM.
1. O=C(/C=C/c1ccc2c(c1)C(=O)CC1(CCN(Cc3ccccc3)C1)O2)NO (racemic)
2. O=C(/C=C/c1ccc2c(c1)C(=O)CC1(CCN(Cc3ccc(F)cc3)CC1)O2)NO
3. CN1CCCC2(CC(=O)c3cc(/C=C/C(=O)NO)ccc3O2)C1 (racemic)
4. O=C(/C=C/c1ccc2c(c1)C(=O)CC1(CN(Cc3ccccc3)C1)O2)NO
5. O=C(/C=C/c1ccc2c(c1)C(=O)CC1(CCN(CCc3ccccc3)CC1)O2)NO
6. O=C(/C=C/c1ccc2c(c1)C(=O)CC1(CCN(CCc3ccccc3)C1)O2)NO (racemic)
7. Cn1cc(CN2CC3(CC(=O)c4cc(/C=C/C(=O)NO)ccc4O3)C2)c2ccccc21

Reply text:
[70, 43, 14, 64, 41, 41, 74]

Inquiry: Could you share what inhibition at 0.5 h, 10 µM was measured for O=C(CCCCCCC(=O)Nc1ccccc1)NO , tested on CYP2D6 (Homo sapiens)?
Reply text: 25

----------
Biological target: Histone deacetylase
Test: Inhibition of HDAC in human HeLa cells nuclear extract using Fluor de lys as substrate after 15 mins by fluorometric analysis
Format: cell-based
With a cut-off of 100 nM, any IC50 strictly below it is called yes; any IC50 meeting it or above is called no.

molecule: O=C(/C=C/c1ccc2c(c1)C(=O)CC1(CCCN(Cc3ccc(F)cc3)C1)O2)NO (racemic)
assignedCategory: yes

Inquiry: Take the molecule CN1CCCC2(CC(=O)c3cc(/C=C/C(=O)NO)ccc3O2)C1 (racemic) and say whether its IC50 is less than 100 nM.
Reply text: no

Inquiry: Take the molecule O=C(/C=C/c1ccc2c(c1)C(=O)CC1(CCCN(Cc3ccccc3)C1)O2)NO (racemic) and say whether its IC50 is less than 100 nM.
Reply text: yes

Inquiry: Take the molecule O=C(/C=C/c1ccc2c(c1)C(=O)CC1(CCN(Cc3ccc(F)cc3)C1)O2)NO (configuration not stated) and say whether its IC50 is less than 100 nM.
Reply text: no

Inquiry: Take the molecule O=C(/C=C/c1ccc2c(c1)C(=O)CC1(CCN(C(=O)c3ccccc3)C1)O2)NO (racemic) and say whether its IC50 is less than 100 nM.
Reply text: no

Inquiry: Take the molecule O=C(/C=C/c1ccc2c(c1)C(=O)CC1(CCN(Cc3ccccc3)C1)O2)NO (stereo in doubt; 32j) and say whether its IC50 is less than 100 nM.
Reply text: yes

Inquiry: Take the molecule O=C(/C=C/c1ccc2c(c1)C(=O)CC1(CCCN(C(=O)c3ccccc3)C1)O2)NO (racemic) and say whether its IC50 is less than 100 nM.
Reply text: no

Inquiry: Take the molecule CCOC(=O)N1CCCC2(CC1)CC(=O)c1cc(/C=C/C(=O)NO)ccc1O2 (racemic) and say whether its IC50 is less than 100 nM.
Reply text: no

Inquiry: Take the molecule O=C(/C=C/c1ccc2c(c1)C(=O)CC1(CCNC1)O2)NO (racemic) and say whether its IC50 is less than 100 nM.
Reply text: no

Inquiry: Take the molecule O=C(/C=C/c1ccc2c(c1)C(=O)CC1(CCCNC1)O2)NO (racemic) and say whether its IC50 is less than 100 nM.
Reply text: no

Inquiry: Take the molecule O=C(/C=C/c1ccc2c(c1)C(=O)CC1(CCCN(Cc3ccccc3)C1)O2)NO (single isomer, unassigned; (-)) and say whether its IC50 is less than 100 nM.
Reply text: yes

Inquiry: Take the molecule CC(=O)N1CC2(CC(=O)c3cc(/C=C/C(=O)NO)ccc3O2)C1 and say whether its IC50 is less than 100 nM.
Reply text: no
